Tested on: K-562 leukemia
Assay: NCI tumour cell line growth inhibition, 48 h
metricName: TGI

| structureNotation | assayedTarget | metricName | dataValue |
| --- | --- | --- | --- |
| Cc1c(N)c(C#N)c2n(C)c3ncccc3n2c1=O | K-562 leukemia | TGI | > 100 µM |
| CSc1ccccc1NC1=NCCO1 | K-562 leukemia | TGI | > 100 µM |
| COC(=O)NC1=Nc2ccccc2C(=O)NN1 | K-562 leukemia | TGI | > 100 µM |

###

System: HCT-15 colon
Test: NCI tumour cell line growth inhibition, 48 h
metricName: TGI

| compound | dataValue |
| --- | --- |
| CC(=O)NNc1nc(C)c(C(=O)/C=C/c2ccc(N(C)C)cc2)s1 | > 100 µM |
| CC(=O)n1nc(-c2[nH]c(C)c(-c3nn(C(C)=O)c(=S)o3)c2C)oc1=S | > 100 µM |
| COC(=O)C1=C(N)C2=C(N)Oc3ccccc3C2CC1=C(C#N)C#N (stereo not drawn) | 36.8 µM |
